# system-tested: EGFR A763_Y764insFHEA (Homo sapiens (Human), UniProt P00533, INS763FHEA)
# Sequence (P00533 other isoform, or with tags, fused parts or gaps del 1-694/ins FHEA behind 763 limits assumed): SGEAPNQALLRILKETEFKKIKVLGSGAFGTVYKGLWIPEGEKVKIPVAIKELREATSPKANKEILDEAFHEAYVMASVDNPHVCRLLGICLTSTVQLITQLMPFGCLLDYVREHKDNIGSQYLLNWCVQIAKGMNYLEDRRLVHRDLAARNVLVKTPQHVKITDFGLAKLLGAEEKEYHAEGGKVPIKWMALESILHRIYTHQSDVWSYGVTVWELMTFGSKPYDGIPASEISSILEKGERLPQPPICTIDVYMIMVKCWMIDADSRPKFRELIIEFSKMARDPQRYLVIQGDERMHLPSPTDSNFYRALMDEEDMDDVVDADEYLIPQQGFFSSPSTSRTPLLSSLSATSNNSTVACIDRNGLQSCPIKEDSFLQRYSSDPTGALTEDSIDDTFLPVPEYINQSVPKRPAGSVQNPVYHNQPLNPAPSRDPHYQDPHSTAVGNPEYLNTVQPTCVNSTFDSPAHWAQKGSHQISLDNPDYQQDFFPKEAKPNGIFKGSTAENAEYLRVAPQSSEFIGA
# assay-comment: HTRF inhibitory activity against EGFR mutant enzyme (EGFR A763_Y764insFHEA)
# condition-notes: recombinant enzyme, 37° C. for 2 hours
# Method: The activity of the compounds of the present invention against EGFR mutant enzymes was measured using the HTRF system purchased from Cisbio as follows. […] The enzyme reaction begins by first mixing component 1 and component 2 and then adding component 3 thereto. […] Finally, the ratio of fluorescence values at 615 nm and 665 nm was measured using Perkin-Elmer's Envision instrument to calculate enzyme activity and confirm the inhibitory ability of the compounds. […]
measure-name: IC50 (nM)

C=CC(=O)Nc1cc(Nc2ncc(C)c(Nc3ccccc3NS(C)(=O)=O)n2)c(OC)cc1N(C)CCN(C)C [Example 16]; 2
C=CC(=O)Nc1cc(Nc2nccc(Nc3ccccc3NS(C)(=O)=O)n2)c(OC)cc1N(C)CCN(C)C [Example 7]; 5
C=CC(=O)Nc1cc(Nc2ncc(Cl)c(Nc3ccccc3NS(=O)(=O)c3ccccc3)n2)c(OC)cc1N(C)CCN(C)C [Example 2]; 3
C=CC(=O)Nc1cc(Nc2ncc(C)c(Nc3ccccc3NS(=O)(=O)c3ccccc3)n2)c(OC)cc1N(C)CCN(C)C [Example 20]; 6
C=CC(=O)Nc1cc(Nc2ncc(Cl)c(Nc3cccc(Cl)c3N(C)S(C)(=O)=O)n2)c(OC)cc1N(C)CCN(C)C [Example 35]; 3

(P) C=CC(=O)Nc1cc(Nc2ncc(Cl)c(Nc3ccc(C)cc3NC(C)=O)n2)c(OC)cc1N(C)CCN(C)C [Example 88]
(Q) C=CC(=O)Nc1cc(Nc2nccc(Nc3ccccc3NS(=O)(=O)c3ccc(C)cc3)n2)c(OC)cc1N(C)CCN(C)C [Example 9]
Which of the two items, P and Q , has the greater recorded IC50? // return label of chosen record
Q
(Q: 90 nM, P: 2 nM)

(1) C=CC(=O)Nc1cc(Nc2ncc(Cl)c(Nc3ccc(C)cc3N(C)C(C)=O)n2)c(OC)cc1N(C)CCN(C)C [Example 87]
(2) C=CC(=O)Nc1cc(Nc2ncc(Cl)c(Nc3cccc(C)c3N(C)C(C)=O)n2)c(OC)cc1N(C)CCN(C)C [Example 85]
Please indicate which entry, 1 or 2 , has the lower recorded IC50 value. // return label of chosen record
1

(1) C=CC(=O)Nc1cc(Nc2ncc(Cl)c(Nc3cccc(CC)c3NS(C)(=O)=O)n2)c(OC)cc1N(C)CCN(C)C [Example 40]
(2) C=CC(=O)Nc1cc(Nc2ncc(Cl)c(Nc3ccccc3N3CCCS3(=O)=O)n2)c(OC)cc1N(C)CCN(C)C [Example 70]
Which of the two items, 1 and 2 , has the greater recorded IC50? // return label of chosen record
2
(2: 4 nM, 1: 1 nM)

Value source: patent US20240343694A1
